# Tested on: ATP;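 further: ATP exposure 15 min at 22 °C before imaging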
# assayProtocol: switch fluorescence ratio, 500 uM ATP over buffer (Cy3 cluster intensity, sum of 5 cycles each) (fold (ratio)); higher = stronger signal-on switching upon ATP binding; sequences stand for … in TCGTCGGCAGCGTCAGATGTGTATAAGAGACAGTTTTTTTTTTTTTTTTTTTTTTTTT…TC
# testParameters: aptamer strand: ATP DNA aptamer (quencher-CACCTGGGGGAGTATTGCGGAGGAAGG + anchor), 100 nM annealed; ATP concentration: 500 uM

sequenceChain	switch fluorescence ratio
TTTTTCTAAG	1.01
TTTAAAGTTT	0.99
GGTGTTATAT	1.02
GTGGTGGCAG	0.979
CGCGTTGGCA	1.04
TTTCTAACTC	1
ATTTGGGCTG	0.999
TCCAAACCAG	1.06
GTCTAAGGAT	0.995
TTTGTGTGGT	0.978
AGAATGGGTG	1.05
GGTCTAAGTA	1.08
GATGTTGATG	0.976
TCCTGTTTTC	0.987
CGGGAATTTT	1
GTGATTTGGG	1.01
CATGCTTGGG	0.999
GCTGGGAGGC	0.947
TGGCGGAGTC	1
ATATTAAAAG	0.996
TCGCGTCTCA	1.01
AACTCTAAAA	1.05
TGGTGAAATG	1
GGATTCTGGA	0.991
TGGATAGGGG	1.03
AGTCTGTCGT	0.98
TGGGAGGAAT	0.988
GAAGTTTAAA	1.02
TTCGGACCCG	0.976
GTGTGAAAGG	1
GGGTTAGGGG	1.01
GCATCCGGGA	0.956
TTTATATTTT	1.02
GTGTTAGTAT	1.02
CGACGTATTG	1.02
GATTATAGAT	1
TTTCAAGCAT	1.02
TGGGGACCGT	1
CGGAGGATGG	0.987
ATGGATTGGC	1.08
CATTTTTGTT	0.979
ATTTCTTTTT	1.03
CGTTTGGAAC	1.01
CAATCTTCGT	1.02
GTTGGTTAGC	1.02
GTCATAGGTG	1.28
CGGTACTTAT	0.983
TAATACTTCG	1.03
TTTTGAATAA	0.969
CGCGAGGCGT	1.07
TTTCCGTTAT	2.41
GAGCACAGGT	2.33
AGGGATTATT	1.02
AAGTTCACCA	1.02
TTAAGAATTA	1.03
AAGGACTAAC	1.12
ACAAGGTGTT	1.2
TAGGCTAGGC	0.971
TCGGCGTTCA	1.02
TTATCAAAGC	0.992
AGGTCTAATG	1.01
GGCGGGGTAG	0.996
AATTAGCATC	1.06
GGTAGGGGTA	1.03
AAGATTTGTT	0.978
CTTATTTCCG	1.03
AAACTTAAGA	0.996
TAAGTGGGTA	0.991
ATAGGTAGGT	0.996
ATCAGATGAT	1
TTTGGGACTT	1.01
TGCCAGTACG	1.06
CTAGGGCTGA	0.972
GGAAAGATGT	1.01
ATGTGGGAGT	0.979
GTAAGGAGGT	0.976
AATTGGCCGG	0.989
AATATGGGT	1
GGGTTCTCTC	0.98
TCTCATGTAG	1.02
CGGGGGATGC	1.05
GCTAGAGGGT	1.02
CAATTATCGC	0.988
AGTAGCAAAT	1.2
AATTTTGTTT	0.991
GTGGTACTGG	0.968

* * *

Item-by-item account of switch fluorescence ratio
# Tested on: ATP;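 further: ATP exposure 15 min at 22 °C before imaging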
# assayProtocol: switch fluorescence ratio, 500 uM ATP over buffer (Cy3 cluster intensity, sum of 5 cycles each) (fold (ratio)); higher = stronger signal-on switching upon ATP binding; sequences stand for … in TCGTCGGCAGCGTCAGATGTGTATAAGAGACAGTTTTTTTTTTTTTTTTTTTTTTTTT…TC
# testParameters: aptamer strand: ATP DNA aptamer (quencher-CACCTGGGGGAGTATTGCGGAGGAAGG + anchor), 100 nM annealed; ATP concentration: 500 uM
measuredQuantity: switch fluorescence ratio

sequenceChain	experimentalValue
TAATCTTTGG	0.961
GGGATTGGTG	0.995
TGGGGGTTCT	1.02
CGGGGACTGG	0.973
TTTGGGGAAT	1.02
CATGTACGTG	1.04
TTGGGCAGTA	0.978
AGCGACGTTT	0.965
TGTTAAGGGG	1.18
GGGTGAAGGC	0.971
AGTTATACGT	1.03
AATGGGAAAT	0.968
ATATTTATAG	0.994
ATTGGGCACC	0.998
AGCTGTACTA	1.21
GATTGGAGTC	1.01
TTGTCGTCAC	1.01
GATTTTTATG	0.977
AGGTTCAAAT	0.996
GCGACACACT	1.47

* * *

# Tested on: ATP;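 further: ATP exposure 15 min at 22 °C before imaging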
# assayProtocol: switch fluorescence ratio, 500 uM ATP over buffer (Cy3 cluster intensity, sum of 5 cycles each) (fold (ratio)); higher = stronger signal-on switching upon ATP binding; sequences stand for … in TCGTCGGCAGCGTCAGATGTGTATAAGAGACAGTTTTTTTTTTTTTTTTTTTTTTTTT…TC
# testParameters: aptamer strand: ATP DNA aptamer (quencher-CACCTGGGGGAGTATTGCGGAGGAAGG + anchor), 100 nM annealed; ATP concentration: 500 uM
Mark Y for reported switch fluorescence ratio of 1 or greater; mark N for anything smaller.

sequenceChain	categoryLabel
CCCGGAGGCA	Y
CTGGTAGGGA	Y
GCAATCGAGT	Y
AGGGTGTGGC	Y
ATTACAGGAC	Y
TTTTGATCGA	Y
TAAAGTTCAG	N
CGATGCTACA	Y
TCGGAATATT	Y
CGATACGGTG	Y
CTGACGGCTT	Y
TGCGCCAGGG	Y
TAAAATCGGG	N
CCCAGGTTAG	Y
TGATGGAAGG	N
GAGAGGGTAC	Y
TATGTATAGG	Y
AGTTAAAGCT	Y
AGTGTGCATG	Y
CCGAGTTTTT	Y
ACACGTGGTT	Y
TTTGTAGCAG	Y
TACTAAGAAT	Y
TGGATGACGC	N
TTTTACGCAC	Y
TACCGTGGGG	Y
CGGTGGCTGC	N
TTGTTTTAGT	Y
TGGGGGAAAT	Y

* * *

# Tested on: ATP;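 further: ATP exposure 15 min at 22 °C before imaging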
# assayProtocol: switch fluorescence ratio, 500 uM ATP over buffer (Cy3 cluster intensity, sum of 5 cycles each) (fold (ratio)); higher = stronger signal-on switching upon ATP binding; sequences stand for … in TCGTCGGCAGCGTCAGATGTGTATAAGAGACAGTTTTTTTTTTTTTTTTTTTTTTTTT…TC
# testParameters: aptamer strand: ATP DNA aptamer (quencher-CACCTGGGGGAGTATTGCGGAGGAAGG + anchor), 100 nM annealed; ATP concentration: 500 uM
Item-by-item account of switch fluorescence ratio
measuredQuantity: switch fluorescence ratio

sequenceChain	experimentalSystem	measuredQuantity	experimentalValue
CGTCGTAGGG	ATP	switch fluorescence ratio	0.985
GGACAGTGAT	ATP	switch fluorescence ratio	1.01
TCGAGATTAT	ATP	switch fluorescence ratio	1.01
GCACTATAGG	ATP	switch fluorescence ratio	0.999
AAAGAAATTC	ATP	switch fluorescence ratio	1.02
ACTCTATTTG	ATP	switch fluorescence ratio	1.04
ATCGGGGTCA	ATP	switch fluorescence ratio	1.01
GGAGTCGACG	ATP	switch fluorescence ratio	1.02
TTTAAGCTAC	ATP	switch fluorescence ratio	4.03
CCTACCGTGG	ATP	switch fluorescence ratio	1.31
CATTTTTAAC	ATP	switch fluorescence ratio	0.977
GAAATGATGG	ATP	switch fluorescence ratio	0.978
TTTAAAAGGA	ATP	switch fluorescence ratio	1.01
GGGGGAGCTG	ATP	switch fluorescence ratio	0.978
GCAGTGGGGT	ATP	switch fluorescence ratio	1.01
GGGTAATATG	ATP	switch fluorescence ratio	1.01
ACATGCCGGG	ATP	switch fluorescence ratio	1.03
ACGATGTAAA	ATP	switch fluorescence ratio	0.957
GTGATGCTTG	ATP	switch fluorescence ratio	0.998
TTTCAATTTT	ATP	switch fluorescence ratio	0.996

* * *

Item-by-item account of switch fluorescence ratio
# System: ATP;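 further: ATP exposure 15 min at 22 °C before imaging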
# assayProtocol: switch fluorescence ratio, 500 uM ATP over buffer (Cy3 cluster intensity, sum of 5 cycles each) (fold (ratio)); higher = stronger signal-on switching upon ATP binding; sequences stand for … in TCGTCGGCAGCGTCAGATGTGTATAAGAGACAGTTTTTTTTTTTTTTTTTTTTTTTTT…TC
# testParameters: aptamer strand: ATP DNA aptamer (quencher-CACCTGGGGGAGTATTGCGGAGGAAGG + anchor), 100 nM annealed; ATP concentration: 500 uM
measuredQuantity: switch fluorescence ratio

sequenceChain	experimentalValue
GTTTTTTTGT	0.966
AGTTGCGTCC	1.01
GAGTTGAGAT	0.987
GGCTGACATT	0.979
ATTTAAGGGA	0.982
CTGTATTTCT	1.03
TTTGAGGCCT	0.99
CGCAGAGTGG	1.01
CCCATTGTAA	1.04
ACTTTGCGGT	1.08
GAGTCTTATA	1.01
CGTTTAGGTA	0.982
GGGTGAAGAA	0.967
GCGGGCAAGT	0.99
TTTATGTCCG	1.04
GGTTTATTAA	0.983
TAGAAAATTT	1
AGTTTGTTGG	0.989
TACTGCGGAA	1.79
GGTAGGCGGG	0.959
